# assay_target: pooled human IgG (human IgG1, 2, 3 and 4)
recorded_metric: Enzyme Activity Endpoint Assay (purified): scIgG

protein	result
PRT-469 (protein) MVTSVWTKGVTPPTDFIKGEDVFHAPYKAGQGWYDITKAFDGGDDLLCGAATAGNMLHWWFDQNKDQIERYLKEHPEKQKINFNGEQMFDVKEAIDTKDSQTNSELFNYFKEKAFPYLSTKHLGVFPDHVLDMFINGYRLSLTNHGPTPVKRQEKDPRGGIFDAVFGRGDQTKLLTSRHDLKNKTLKEISDLIKQELTEGKALGLSHTYANVRINHVINLWGADFDSEGNLKAIYVTDSDSNASIGMKKYFVGVNSAGKVAISAKEIKEDNIGAQVLGLFTLSTGQKIWNKTNLEHHHHHH	248 ng/µL
PRT-495 (protein) MVTSVWTKGVTPPTDFIKGEDVFHAPYKAGQGWYDITKAFDGGDDLLCGAATAGNMLHWWFDQNKEYIEAYLKKHPEKQKIMFGDQELLDVRKAINTKGSQKNSELFNYFRDKAFPNLSARRLGVMPDLVLDMFINGYYLNVTKTQTTDVNRTYQEKDKRGGIFDAVFTRGDQSKLLTSRHDFKEKGLKEISDLIKQELTEGKALGLSHTYANVRINHVINLWGADFDSDGNLKAIYVTDSDSNASIGMKKYFVGVNSAGKVAISAKEIKEDNIGAQVLGLFTLSTGQDIWNQTNLEHHHHHH	0 ng/µL
PRT-641 (protein) MQITSVWTKGVTPLTPEQFRYNNEDVIHAPYLAHQGWYDITKTMNGKDDLLCGAATAGNMLHWWFDQNKTEIEAYLSKHPEKQKIIFNNQELFDLKAAIDTKDSQTNSQLFNYFRDKAFPNLSARQRGVMPDLVLDMFINGYYLNVFKTQSTDVNRPYQDKDKRGGIFDAVFTRGDQTTLLTARHDLKNKGLNDISTIIKQELTEGRALALSHTYANVSISHVINLWGADFNAEGNLEAIYVTDSDARENIGMKKYFVGINAHGHVAISAKKIEGENIGAQVLGLFTLSSGKDIWQKLSLEHHHHHH	0 ng/µL
PRT-603 (protein) MQITTVWTKGVTPLTPEQFRYNNEDVIHAPYLAHQGWYDITKAFDGKDNLLCGAATAGNMLHWWFDQNKTEIEAYLSKHPEKQKIIFNNQELFDLKAAIDTKDSQTNSQLFNYFRDKAFPNLSARQLGVMPDLVLDMFINGYYLNVFKTQSTDVNRPYQDKDKRGGIFDAVFTRGDQTTLLTARHDLKNGGLNDISTIIKQELQSGRALALSHTYANVSISHVINLWGADFNAEGNLEAIYVTDSDANASIGMKKYFVGINAHGHVAISAKKIEGENIGAQVLGLFTLSSGKDIWQKLSLEHHHHHH	0 ng/µL
